Each entry below carries its measured Ki, system: Adenosine A2 receptor (Rattus norvegicus, UniProt P29276+P30543).
Report the figure in nM without appending any unit label.

Recorded results for 6 molecules are shown here.
MOLECULE: CNC(=O)[C@H]1O[C@@H](n2cnc3c(NCc4cccc(C)c4)ncnc32)[C@H](O)[C@@H]1O
TEST VALUE: 415
--
MOLECULE: CNC(=O)[C@H]1OC(n2cnc3c(NCc4cccc(NC(C)=O)c4)ncnc32)[C@H](O)[C@@H]1O (some centres undefined)
TEST VALUE: 988
--
MOLECULE: CCNC(=O)[C@H]1O[C@@H](n2cnc3c(NCc4ccccc4[N+](=O)[O-])ncnc32)[C@H](O)[C@@H]1O
TEST VALUE: 24
--
MOLECULE: O=C(NC1CC1)[C@H]1OC(n2cnc3c(NCc4ccccc4)ncnc32)[C@H](O)[C@@H]1O (some centres undefined)
TEST VALUE: 55
--
MOLECULE: CNC(=O)[C@H]1OC(n2cnc3c(NCc4cccc(S(=O)(=O)O)c4)ncnc32)[C@H](O)[C@@H]1O (some centres undefined)
TEST VALUE: 9070
--
MOLECULE: CCNC(=O)[C@H]1O[C@@H](n2cnc3c(NCc4cccc(C)c4)ncnc32)[C@H](O)[C@@H]1O
TEST VALUE: 17.7

Query: Under Adenosine A2 receptor (Rattus norvegicus, UniProt P29276+P30543): report Ki of CCNC(=O)[C@H]1OC(n2cnc3c(N[C@@H](C)c4ccccc4)ncnc32)[C@H](O)[C@@H]1O (some centres undefined) .
Response: 1650

Query: Under Adenosine A2 receptor (Rattus norvegicus, UniProt P29276+P30543): report Ki of CNC(=O)[C@H]1OC(n2cnc3c(NCc4cccc(N)c4)ncnc32)[C@H](O)[C@@H]1O (some centres undefined) .
Response: 794

Query: Under Adenosine A2 receptor (Rattus norvegicus, UniProt P29276+P30543): report Ki of CNC(=O)[C@H]1OC(n2cnc3c(NCc4ccc(Br)cc4)ncnc32)[C@H](O)[C@@H]1O (some centres undefined) .
Response: 2460

* * *

EXPERIMENTAL SYSTEM: Adenosine receptor A3 (Rattus norvegicus)
Sequence (P28647 whole entry): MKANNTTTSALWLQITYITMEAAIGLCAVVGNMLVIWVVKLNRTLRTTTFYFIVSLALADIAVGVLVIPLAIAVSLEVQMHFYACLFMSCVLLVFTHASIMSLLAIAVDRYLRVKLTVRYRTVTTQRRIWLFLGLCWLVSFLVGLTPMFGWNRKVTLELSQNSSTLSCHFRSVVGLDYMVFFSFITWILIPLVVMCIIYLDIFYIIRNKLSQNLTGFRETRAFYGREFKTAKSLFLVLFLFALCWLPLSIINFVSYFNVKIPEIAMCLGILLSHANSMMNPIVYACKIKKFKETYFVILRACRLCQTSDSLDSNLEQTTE
Ki values for the compounds below.
Report the figure in nM without appending any unit label.

Recorded results for 4 compounds are shown here.
COMPOUND: CCNC(=O)[C@H]1OC(n2cnc3c(=O)[nH]cnc32)[C@H](O)[C@@H]1O (stereo not given in full)
Ki (nM): 5000
//
COMPOUND: CCNC(=O)[C@H]1O[C@@H](n2cnc3c(N)[n+](Cc4ccc([N+](=O)[O-])cc4)cnc32)[C@H]([O-])[C@@H]1O
Ki (nM): 60
//
COMPOUND: CNC(=O)[C@H]1O[C@@H](n2cnc3c(NCc4cccc(Cl)c4)ncnc32)[C@H](O)[C@@H]1O
Ki (nM): 21.9
//
COMPOUND: O=C(NC1CC1)[C@H]1OC(n2cnc3c(NCc4ccccc4)ncnc32)[C@H](O)[C@@H]1O (stereo not given in full)
Ki (nM): 103

// below: Ki requested for another compound
Query: Under Adenosine receptor A3 (Rattus norvegicus): report Ki of CCNC(=O)[C@H]1O[C@@H](n2cnc3c(N)[n+](Cc4ccccc4[N+](=O)[O-])cnc32)[C@H](O)[C@@H]1[O-] .
Response: 27

* * *

TEST SUMMARY: Ratio of binding affinities for A2 receptor compared to that of A3 receptor
Ratio values for the molecules below.

MOLECULE: CNC(=O)[C@H]1O[C@@H](n2cnc3c(O)ncnc32)[C@H](O)[C@@H]1O
Ratio: > 10
//
MOLECULE: CC(C)(C)OC(=O)NCCNC(=O)[C@H]1O[C@@H](n2cnc3c(N)ncnc32)[C@H](O)[C@@H]1O
Ratio: > 1
//
MOLECULE: NCCNC(=O)[C@H]1O[C@@H](n2cnc3c(N)ncnc32)[C@H](O)[C@@H]1O
Ratio: > 1

// below: Ratio requested for another molecule
Query: Provide one value: measured Ratio of CCNC(=O)[C@H]1OC(n2cnc3c(O)ncnc32)[C@H](O)[C@@H]1O (some centres undefined)
Response: > 1

* * *

Each entry below carries its measured Ki, system: Adenosine A2 receptor (Rattus norvegicus, UniProt P29276+P30543).
Report the figure in nM without appending any unit label.

MOLECULE: CNC(=O)[C@H]1OC(n2cnc3c(NCc4cccc(C(F)(F)F)c4)ncnc32)[C@H](O)[C@@H]1O (stereo not given in full)
EXPERIMENTAL SYSTEM: Adenosine A2 receptor (Rattus norvegicus, UniProt P29276+P30543)
Ki [nM]: 574

MOLECULE: CCNC(=O)[C@H]1O[C@@H](n2cnc3c(N)[n+](Cc4ccc([N+](=O)[O-])cc4)cnc32)[C@H]([O-])[C@@H]1O
EXPERIMENTAL SYSTEM: Adenosine A2 receptor (Rattus norvegicus, UniProt P29276+P30543)
Ki [nM]: 190

MOLECULE: CCNC(=O)[C@H]1O[C@@H](n2cnc3c(NCc4cccc([N+](=O)[O-])c4)ncnc32)[C@H](O)[C@@H]1O
EXPERIMENTAL SYSTEM: Adenosine A2 receptor (Rattus norvegicus, UniProt P29276+P30543)
Ki [nM]: 35

MOLECULE: CCNC(=O)[C@H]1O[C@@H](n2cnc3c(NCc4cccc(F)c4)ncnc32)[C@H](O)[C@@H]1O
EXPERIMENTAL SYSTEM: Adenosine A2 receptor (Rattus norvegicus, UniProt P29276+P30543)
Ki [nM]: 32

MOLECULE: CCNC(=O)[C@H]1O[C@@H](n2cnc3c(N)[n+](Cc4ccccc4[N+](=O)[O-])cnc32)[C@H](O)[C@@H]1[O-]
EXPERIMENTAL SYSTEM: Adenosine A2 receptor (Rattus norvegicus, UniProt P29276+P30543)
Ki [nM]: 83.5

Query: Under Adenosine A2 receptor (Rattus norvegicus, UniProt P29276+P30543): report Ki of CNC(=O)[C@H]1OC(n2cnc3c(NCc4ccc(Cl)cc4)ncnc32)[C@H](O)[C@@H]1O (stereo not given in full) .
Response: 2730

Query: Under Adenosine A2 receptor (Rattus norvegicus, UniProt P29276+P30543): report Ki of CCNC(=O)[C@H]1O[C@@H](n2cnc3c(NCc4ccc(OC)cc4)ncnc32)[C@H](O)[C@@H]1O .
Response: 609

Query: Under Adenosine A2 receptor (Rattus norvegicus, UniProt P29276+P30543): report Ki of CCNC(=O)[C@H]1O[C@@H](n2cnc3c(NCc4cccc(OC)c4)ncnc32)[C@H](O)[C@@H]1O .
Response: 38

Query: Under Adenosine A2 receptor (Rattus norvegicus, UniProt P29276+P30543): report Ki of CCNC(=O)[C@H]1O[C@@H](n2cnc3c(NCc4ccccc4OC)ncnc32)[C@H](O)[C@@H]1O .
Response: 21

Query: Under Adenosine A2 receptor (Rattus norvegicus, UniProt P29276+P30543): report Ki of CNC(=O)[C@H]1O[C@@H](n2cnc3c(NCc4ccc(N)c(I)c4)ncnc32)[C@H](O)[C@@H]1O .
Response: 197
